Data credit: paper PMC4542541

- System: TcSKR2
- Test: Receptor activation bioassay, CRE-luciferase reporter in Sf9-TcSKR2 cells
- Assay type: cell-based, Tribolium castaneum
- Measurement Parameters: peptide 10 μM; Sf9-TcSKR2 cells transiently transfected with pGL4.29[luc2P/CRE/Hygro]; 5 h at 27 °C; Bright-Glo luminescence; activity related to nsSK; mean ± SEM, at least two biological replicates; SEM
Each entry below lists one item and its recorded relative activity (% nsSK) TcSKR2 value.
Measurement Kind: relative activity (% nsSK) TcSKR2

>>> print(df.to_string())
                                  substance                   measurement_kind  result
0  FDDYGHMRA-NH2 [Peptide 2003, alanine-substituted nsSK, …-NH2]  relative activity (% nsSK) TcSKR2    −3.5
1  DYGHMRF-NH2 [Peptide 2010, truncated nsSK, DYGHMRF-NH2]  relative activity (% nsSK) TcSKR2     8.6
2  DDYGHMRF-NH2 [Peptide 2009, truncated nsSK, DDYGHMRF-NH2]  relative activity (% nsSK) TcSKR2     1.2
3  FDDYAHMRF-NH2 [Peptide 2007, alanine-substituted nsSK, …-NH2]  relative activity (% nsSK) TcSKR2     8.5
4  FDDYGHMAF-NH2 [Peptide 2004, alanine-substituted nsSK, …-NH2]  relative activity (% nsSK) TcSKR2    18.7
